- ASSAY_SUMMARY: in vitro
- PROTOCOL_CONDITIONS: PAMPA, pH 7.4
MEASURED_PARAMETER: Papp
Form entry: enter the amount, then its unit.

For each of the items listed, what is its Papp?
1. CCCCCCSc1cc(Cl)c(C(=O)CCN2CCNC(=O)C2)cc1Cl
2. CCCCCCOc1cc(Cl)c(C(=O)CCN2CC2C)cc1Cl (stereo not drawn)

Data returned:
1: 810 ×10⁻⁶ cm/s; 2: 810 ×10⁻⁶ cm/s

Please look at the items below and tell me Papp for each one, in order.
1. CCCCCCS(=O)(=O)c1cc(Cl)c(C(=O)CCN2CCN(C(C)=O)CC2)c(Cl)c1
2. CCCCCCS(=O)(=O)c1ccc(C(=O)CCN2CCOCC2)c(Cl)c1
3. CCCCCCSc1ccc(C(=O)CCN2CC2C)c(Cl)c1Cl (stereo not drawn)
4. CCCCCCSc1cc(Cl)c(C(=O)CCN(C)C)c(Cl)c1
5. CCCCCCS(=O)(=O)c1ccc(C(=O)CCN2CCN(C(C)=O)CC2)c(Cl)c1
6. CCCCCCS(=O)(=O)c1ccc(C(=O)CCN(C)C)cc1

Data returned:
1: 480 ×10⁻⁶ cm/s; 2: 760 ×10⁻⁶ cm/s; 3: 70 ×10⁻⁶ cm/s; 4: 350 ×10⁻⁶ cm/s; 5: 360 ×10⁻⁶ cm/s; 6: 780 ×10⁻⁶ cm/s

Hi! Can you tell me Papp for each of these molecules?
1. CCCCCCOc1ccc(C(=O)CCN(C)C)c(Br)c1
2. CCN1CCC(Cc2ccc(C(=O)CCN(C)C)cc2)CC1
3. CCCCCCOc1cc(C(C)C)c(C(=O)CCN(C)C)cc1C
4. CCCCCCOc1ccc(C(=O)CCN(C)C)cc1-c1ccccc1
5. CCCCCCOc1cc(C)c(C(=O)CCN(C)C)c(C)c1

Data returned:
["80 ×10⁻⁶ cm/s", "140 ×10⁻⁶ cm/s", "860 ×10⁻⁶ cm/s", "830 ×10⁻⁶ cm/s", "650 ×10⁻⁶ cm/s"]
